system: NCI-H522; test: NCI tumour cell line growth inhibition, 48 h
Calls of active or inactive are those of the source. Rule as the data show it: active = GI50 up to about 1.1 µM and inactive = higher.
Respond with a class label; see active, inactive

INSERT INTO results (compound, target_of_assay, class_assignment) VALUES
  ('Clc1nc(Cl)c(Cl)c(-c2ccccc2)n1', 'NCI-H522', 'inactive'),
  ('CCOC(=O)C1(C/C=C/CCl)CCCC1=O (stereo unspecified)', 'NCI-H522', 'inactive'),
  ('CN(CCNC(=O)c1cc(-c2ccccc2)nc2ccccc12)CCNC(=O)c1cc(-c2ccccc2)nc2ccccc12', 'NCI-H522', 'inactive'),
  ('O=C(c1ccco1)N(Cc1ccco1)C(=S)Nc1ccccc1', 'NCI-H522', 'inactive'),
  ('CC1(C)Oc2ccc3c(=O)cc(-c4ccccc4)oc3c2C1C(=O)O (stereo unspecified)', 'NCI-H522', 'inactive'),
  ('C=C1c2nc3ccccc3n2C=C(c2ccccc2)N1c1ccc(Cl)cc1', 'NCI-H522', 'inactive');

Query :: Please let me know the test result on file for C/C(=N\O)C1CC(CC(=O)O)C1(C)C (stereo unspecified) .
Result :: inactive

Query :: Check CC(=O)OCC1OC(O[C@@H]2C[C@H]3C(C)(C)[C@H](OC(C)=O)CC[C@]3(C)[C@H]3CC[C@@]45C[C@H](O)C[C@H](C)[C@@H]4CC=C5[C@@]32C)C(O)C(O)C1O (stereo partly specified) too.
Result :: inactive

Query :: Would you mind doing Cn1c2c(c3ccccc31)CCN(CCCN1CCN(c3cccc(Cl)c3)CC1)C2=O as well?
Result :: inactive

* * *

test system: SK-MEL-5; assay: NCI tumour cell line growth inhibition, 48 h
Calls of active or inactive are those of the source. Rule as the data show it: active = GI50 up to about 1.1 µM and inactive = higher.
measured.metric: GI50

Known results for compounds:
INSERT INTO assay_data (compound, result) VALUES
  ('c1ccc([C@@H]2N[C@@]3(CO[Si](c4ccccc4)(c4ccccc4)c4ccccc4)CC[C@H]4CN[C@@H]2[C@H]43)cc1', '6.47 µM (inactive)'),
  ('S=c1[nH]c2ccc(Br)cc2c(=S)n1-c1ccccc1', '16.4 µM (inactive)'),
  ('CC(=O)NNc1nc(C)c(C(/C=C/c2ccc(Cl)cc2)=N/NC(=S)NN)s1', '> 100 µM (inactive)'),
  ('C[Si](C)(C)OC1(C#N)c2ccccc2CCCC12CCCC2 (configuration not stated)', '24.1 µM (inactive)'),
  ('Clc1ccc(C2=NOC3C4CCC(C4)C23)cc1 (configuration not stated)', '> 100 µM (inactive)');

Query :: Please look up its GI50: COC(=O)C1=CC2C(=O)c3ccccc3C1(c1ccccc1)N2C1CCCCC1 (configuration not stated)
Result :: 10.1 µM (inactive)

Query :: Also COC(=O)C(=O)C(CC(=O)Nc1ccc(C)cc1)C(=O)OC (configuration not stated) ?
Result :: > 100 µM (inactive)

* * *

tested on: HOP-62; test: NCI tumour cell line growth inhibition, 48 h
The source made the active and inactive calls. Cut-off read from the data, not from the text of the source: active = GI50 up to about 1.1 µM and inactive = higher.
Hi there, use one of these labels in your reply, thanks! TRUE = active, FALSE = inactive

Before answering, review these 3 worked examples.
INSERT INTO assay_data (molecule, class_assignment) VALUES
  ('COC(=O)[C@@H](NC(=O)[C@H](N)Cc1ccc(N(CCCl)CCCl)cc1)C(C)C', 'FALSE'),
  ('CC(C)=CCNc1ncnc2c1ncn2CCC(=O)OC(C)(C)C', 'FALSE'),
  ('CC[C@]1(Cc2ccc(OC)c(OC)c2)CN(S(=O)(=O)c2ccc(C)cc2)C[C@@H]1OC(C)=O', 'FALSE');

Query :: For CCOC(=O)c1ccc(Nc2c3c(nc4ccccc24)CCCC3)cc1 , which call appears in the assay record?
Result :: FALSE

Query :: Same again, this time with c1ccc([C@@H]2N[C@@]3(CO[Si](c4ccccc4)(c4ccccc4)c4ccccc4)CC[C@H]4CN[C@@H]2[C@H]43)cc1
Result :: FALSE

Query :: Item: Cc1cc(O)nc(CNC(=O)c2cccc3ccccc23)n1
Result :: FALSE

Query :: Now try CC(=O)Nc1cc(C(=O)Nc2cc(C(=O)Nc3cc(C(=O)Nc4cc(C(=O)Nc5cc(C(=O)NCCC(=O)NCCCN(C)C)n(C)c5)n(C)c4)n(C)c3)n(C)c2)n(C)c1 .
Result :: FALSE

Query :: Record: CCOC(=O)NC(=O)c1cn(CC(=O)NCC(=O)NCC(=O)N2CCN(CCn3c(C)nc(C(N)=O)c3N)CC2)c(=O)[nH]c1=O
Result :: FALSE

Query :: Now try O=c1[nH]c(=O)n(C2OC(COP(=O)(O)OP(=O)(O)O)C(O)C2O)cc1F (centres undefined) .
Result :: FALSE

Query :: Now the molecule C=C1CC(Cn2ccc(=O)[nH]c2=O)(c2ccc(OC)cc2)OC1=O (centres undefined)
Result :: FALSE

Query :: Same lookup for CCC12CN(C(=O)OC)C3C(Br)C1CCC(=O)C32 (centres undefined) , please.
Result :: FALSE

Query :: Record: O=C(CC(=O)Nc1ccccc1)N/N=C/c1cc(/N=N/c2ccc(Br)cc2)ccc1O
Result :: FALSE

Query :: How about this molecule: N#CC1C(=O)NC23CCCCC2C1c1ccccc1O3 (centres undefined)
Result :: FALSE

Query :: And then CC1=NN(C(=O)c2ccccc2O)C(=O)/C1=C/c1cccc([N+](=O)[O-])c1 , what is it?
Result :: FALSE

Query :: Next: CN(C)c1ccc(/C=C2\N=C(c3ccccc3)N(c3ccc4c(c3)Sc3cc(N5C(=O)/C(=C/c6ccc(N(C)C)cc6)N=C5c5ccccc5)ccc3N4)C2=O)cc1
Result :: FALSE

Query :: Repeat for the following molecule: CCCCCCCCCCCCCCCC(=O)Nc1ccn(C2CC(OP(=O)(O)OCC3OC(n4cc(F)c(=O)[nH]c4=O)CC3OC(C)=O)C(CO)O2)c(=O)n1 (centres undefined)
Result :: TRUE

Query :: Also CC(C)(C)OC(=O)NC(CCC(=O)OCc1ccccc1)C(=O)NCCCO (centres undefined) , if possible.
Result :: FALSE

* * *

system: HOP-92; test: NCI tumour cell line growth inhibition, 48 h
Calls of active or inactive are those of the source. Rule as the data show it: active = GI50 up to about 1.1 µM and inactive = higher.
measured.metric: GI50

Here's what some known entries look like.
INSERT INTO measurements (molecule, result) VALUES
  ('O=C(C1=CCC2(CC1)OCCO2)N(Cc1ccccc1)c1ccccc1I', '16.1 µM (inactive)'),
  ('CC1=C(/C=C/C(C)=C/C=C/C(C)=C/C(=O)Nc2ccc(O)cc2)C(C)(C)CCC1 [FENRETINIDE]', '2.97 µM (inactive)'),
  ('O=C(CCCN1CCC2(CC1)C(=O)NC(=O)N2c1ccccc1)c1ccc(F)cc1', '> 100 µM (inactive)'),
  ('Brc1ccc(/N=c2/nc3ccccn3n3nc(-c4ccccc4)cc23)cc1', '17.8 µM (inactive)'),
  ('COc1c(-c2nc3ccc(N4CCN(C)CC4)nc3[nH]2)cc(OC)c2[nH]c(CO)nc12', '> 100 µM (inactive)'),
  ('Cc1cn(Cc2cccc(C3=NCCCN3)c2)c(=O)n(Cc2cccc(C3=NCCCN3)c2)c1=O', '> 100 µM (inactive)'),
  ('c1ccc(-c2nc3ccccc3nc2SCc2cccnc2)cc1', '> 100 µM (inactive)'),
  ('CCOC(=O)NC(=O)c1cn(CC(=O)NCC(=O)NCC(=O)N2CCN(CCn3c(C)nc(C(N)=O)c3N)CC2)c(=O)[nH]c1=O', '> 100 µM (inactive)'),
  ('CCCCc1nc(C)oc1C(C)C', '> 100 µM (inactive)'),
  ('O=C(Nc1ccccc1C(=O)O)/C(=C/c1ccccc1)NC(=O)c1ccccc1', '> 100 µM (inactive)');

Query :: So what's the measured GI50 for this one? C1=CC2C=CC(C=C1)P2c1ccccc1 (stereo not given)
Result :: > 100 µM (inactive)

Query :: Query c1ccc2c(CNCCCCCCNCc3cccc4ccccc34)cccc2c1 next
Result :: 6.14 µM (inactive)

Query :: And what about the molecule Cc1ccc(Nc2nc(=O)[nH]c(=O)[nH]2)cc1N=[N+]=[N-] ?
Result :: > 100 µM (inactive)

* * *

test system: MDA-MB-231; experiment: NCI tumour cell line growth inhibition, 48 h
Calls of active or inactive are those of the source. Cut-off read from the data, not from the text of the source: active = GI50 up to about 1.1 µM and inactive = higher.
measured.metric: GI50

INSERT INTO measurements (molecule, target_of_assay, result) VALUES
  ('COC(=O)C1=CC2C(=O)c3ccccc3C1(c1ccccc1)N2C1CCCCC1 (stereo unspecified)', 'MDA-MB-231', '17 µM (inactive)'),
  ('CCCCc1nc(C)oc1C(C)C', 'MDA-MB-231', '> 100 µM (inactive)'),
  ('Cc1ccc(-c2nnc(-c3ccc4ccccc4c3)o2)cc1', 'MDA-MB-231', '25.8 µM (inactive)');

Query :: Item CC(C)=CCC[C@@H](C)/C=C/C=C(\C)C(=O)CC[C@@H]1CC[N@+]2(C)CCCC[C@H]12 has what recorded GI50?
Result :: > 100 µM (inactive)

Query :: Next: CNS(=O)(=O)c1ccccc1C(=N)c1ccccc1
Result :: > 100 µM (inactive)

Query :: Next entry: C[n+]1cccc2ccc3cccnc3c21
Result :: 83.6 µM (inactive)

Query :: // repeat for O=C(CC(=O)Nc1ccccc1)N/N=C/c1cc(/N=N/c2ccc(Br)cc2)ccc1O and report
Result :: 3.26 µM (inactive)

Query :: Entry Nc1cc2[nH]c(=O)c3cc(Cl)ccc3c2cc1Cl please
Result :: 14.1 µM (inactive)

Query :: Next molecule: CC[C@H](C)C(=O)O[C@H]1CCC=C2C=C[C@H](C)[C@H](CC[C@@H]3C[C@@H](O)CC(=O)O3)[C@H]21
Result :: 3.85 µM (inactive)

Query :: Next molecule: Cc1ccc2c(c1)C(=C(C#N)C#N)CCCS2(=O)=O
Result :: > 100 µM (inactive)
